Measured IC50, listed per entry for reference.
# measured on: Polyphenol oxidase 1 [N65D,S176D,K211T,P277A,P406L] (Agaricus bisporus var. bisporus (strain H97 / ATCC MYA-4626 / FGSC 10389), UniProt Q00024, K211T/N65D/P277A/P406L/S176D)
# experiment: Enzymatic Activity Assay
# settings: pH 6.8
property label: IC50

smiles_str=O=C(/C=C/c1ccc([N+](=O)[O-])cc1O)c1cc2ccccc2cc1O result="22.9 µM"
smiles_str=O=C(/C=C/c1cc(O)cc(O)c1)c1cc2ccccc2cc1O result="10.4 µM"
smiles_str=O=C(/C=C/c1cc(O)ccc1O)c1cc2ccccc2cc1O result="20.4 µM"
smiles_str=O=C(/C=C/c1ccc(O)c([N+](=O)[O-])c1)c1cc2ccccc2cc1O result="25.6 µM"
smiles_str=O=C(/C=C/c1ccc(O)cc1O)c1cc2ccccc2cc1O result="14.4 µM"
